assay: Pharmacokinetic DDI study in rats, intravenous Y101 and/or ETV; assay type: in vivo, Sprague–Dawley (SD) rats; details: Sprague-Dawley, rat, plasma, i.v. Y101 25 mg/kg + ETV 0.06 mg/kg, n = 4
Quick reference for half-life among some molecules
Write the number in h without appending the unit.

[[record]]
molecule = "CN(C)CCOc1ccc(C[C@H](NC(=O)c2ccccc2)C(=O)N[C@H](CO)Cc2ccccc2)cc1.Cl"
quantity = "half-life"
numeric_result = 0.66

[[record]]
molecule = "CN(C)CCOc1ccc(CC(NC(=O)c2ccccc2)C(=O)O)cc1 (stereo not shown)"
quantity = "half-life"
numeric_result = 2.65

[[record]]
molecule = "C[N+](C)([O-])CCOc1ccc(CC(NC(=O)c2ccccc2)C(=O)O)cc1 (stereo not shown)"
quantity = "half-life"
numeric_result = 1.8


Now turn to the next molecule.
Request: half-life for `C=C1[C@H](CO)[C@@H](O)C[C@@H]1n1cnc2c(=O)[nH]c(N)nc21` ?
Response: 1.28
